This collection of values is drawn from the Human Domainome abundance scans (Beltran et al. 2025).

B1: Far upstream element-binding protein 1, residues 184 to 257; numbered along this chain, Q96AE4 (parent)
chain: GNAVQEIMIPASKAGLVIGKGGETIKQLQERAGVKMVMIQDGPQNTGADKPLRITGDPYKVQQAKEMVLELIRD

Variants of: B1
Assay: abundance fitness (aPCA) (normalised: wild type 0, dead -1); higher = more abundant; growth selection in yeast, the domain comes from the species named
Settings: Homo sapiens
# if value of abundance fitness reaches -0.1, tag MET; if it stays below, tag NOT MET

> print(dat)
    changes  assigned.label
 1     Q44W             MET
 2     E70F         NOT MET
 3     G15S             MET
 4     P43H             MET
 5     M36K         NOT MET
 6     Q44C             MET
 7     K50P         NOT MET
 8     A14S             MET
 9     G22M         NOT MET
10     G19S         NOT MET
11     G19E         NOT MET
12     K20F             MET
13     M38P         NOT MET
14     Q40R             MET
15     V37S             MET
16     G33A         NOT MET
17     L16A             MET
18     G42C             MET
19     A32L             MET
20     I39S             MET
21     E70C         NOT MET
22     G15D             MET
23     G47F             MET
24     P51F             MET
